Assay: inhibitors of the yeast RAM network, pilot screen, dse1pr::URA3 reporter, 5-FOA selection (AID 869);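 further: 0% = DMSO wells with no growth and 100% = 10 µM 1-NA-PP1 with full growth; RAM network block rescues cells from 5-FOA so hits raise OD615 growth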
Conditions: S. cerevisiae dse1pr::URA3 5-FOA growth, OD615, 2 d; at 10 µM; hits give high values; strain carries analog-sensitive mutant Cbk1 kinase
# inhibition listing for each entry below

{"molecule": "CCOC(=O)/C=c1\\sc2n(c1=O)CCN=2", "unit": "%", "inhibition": 1.44}
{"molecule": "Cc1ccccc1-n1c(=O)cc(N2CCCCCC2)[nH]c1=O", "unit": "%", "inhibition": 2.07}
{"molecule": "CCN(CC)c1ccc(NC(=O)c2ccc(NC(=O)C3CCCO3)cc2)c(C)c1 (stereo unspecified)", "unit": "%", "inhibition": 0.965}
{"molecule": "COCCCNc1oc(-c2ccccc2F)nc1C#N", "unit": "%", "inhibition": -0.74}
{"molecule": "Cc1ccc(S(=O)(=O)N2CCN(C(=O)CCC(=O)N3CCc4ccccc43)CC2)cc1", "unit": "%", "inhibition": -0.03}
{"molecule": "CCC1CCCCN1C(=O)CSc1nc2c([nH]c3ccccc32)c(=O)n1C (stereo unspecified)", "unit": "%", "inhibition": 1.36}
{"molecule": "CCCCNC(=O)Nc1cc(C(=O)OC)ccc1C", "unit": "%", "inhibition": 1.55}
{"molecule": "CCOC(=O)c1c2n(c3c(NCc4ccccc4)ncnc13)CCCC2", "unit": "%", "inhibition": 1.23}
{"molecule": "CCc1ccc(Cn2nnc(C(=O)NCc3ccccc3OC)c2N)cc1", "unit": "%", "inhibition": 1.81}
{"molecule": "Cc1cc(C)n(CC(O)Cn2c3ccccc3c3ccccc32)c(=O)n1 (stereo unspecified)", "unit": "%", "inhibition": 1.3}
{"molecule": "CC(=O)Nc1sc(C)c(C)c1CN1CCN(S(=O)(=O)c2ccccc2)CC1", "unit": "%", "inhibition": -0.365}
